Tested on: zebrafish
Test: Developmental toxicity (DevTox) assay
Type: in vivo, Danio rerio
Details: Table 5 summary; this study (some rows also list literature)
Method: At 0 dpf, zebrafish embryos were bleached as previously described ([Tal et al. 2017]). […] Plates were maintained on a 14 h:10 h light cycle at 26.0°C and scored daily for death, malformations, hatching, and swim bladder inflation. At 6 dpf, plates were evaluated by two independent observers and DevTox or DNT assays were performed or media and tissue were collected for analytical chemistry analyses as described below. […]
RECORDED_METRIC: DevTox assay phenotype

O=S(=O)(O)C(F)(F)C(F)(F)C(F)(F)C(F)(F)F ... Negative
O=C(O)C(F)(F)C(F)OC(F)(F)C(F)(F)C(F)(F)OC(F)(F)F (stereo not shown) [ADONA, 4,8-Dioxa-3H-perfluorononanoate] ... Negative^a
O=C(O)C(F)(F)C(F)(F)C(F)(F)C(F)(F)C(F)(F)C(F)(F)C(F)(F)F ... Negative
O=C(O)C(F)(F)C(F)(F)C(F)(F)C(F)(F)C(F)(F)F ... Negative

// switching to the query molecule
Incoming: Fill blank: measured DevTox assay phenotype of the molecule O=S(=O)(O)C(F)(F)C(F)(F)OC(F)(C(F)(F)F)C(F)(F)OC(F)=C(F)F (stereo not shown) is ____.
Outgoing: Negative^a
